// reported Percent RBC Binding to Siglec-5 for each item listed
Biological target: T1, Human Siglec 5, Fc chimera (R&D Systems) (human, UniProt O15389 17-434, limits assumed)
T1 construct: Bought or recombinant Fc fusion; also called recombinant Siglec-5-Fc; not shown: Fc part
T1 sequence: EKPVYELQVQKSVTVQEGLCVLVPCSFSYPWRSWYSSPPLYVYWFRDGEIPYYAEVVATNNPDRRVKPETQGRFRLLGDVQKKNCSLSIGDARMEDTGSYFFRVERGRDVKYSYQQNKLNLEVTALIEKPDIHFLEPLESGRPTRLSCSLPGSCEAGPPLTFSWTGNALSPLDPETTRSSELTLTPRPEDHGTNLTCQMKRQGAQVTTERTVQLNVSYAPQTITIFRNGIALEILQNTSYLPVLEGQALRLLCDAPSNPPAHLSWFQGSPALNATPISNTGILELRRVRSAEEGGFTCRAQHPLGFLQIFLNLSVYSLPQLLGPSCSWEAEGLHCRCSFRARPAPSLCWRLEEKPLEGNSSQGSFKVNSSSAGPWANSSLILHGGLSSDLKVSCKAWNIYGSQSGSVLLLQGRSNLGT
Experiment: RBC adhesion to plate-bound Siglec-5-Fc, 0.3 ug/ml mAb, percent of binding without antibody
quantity: Percent RBC Binding to Siglec-5 (%)

binder	reported.measurement
anti-Siglec-5 monoclonal antibody 10B6 (antibody, IgG1, V domains shown) VH: EIQLQQSGPELVKPGASVKVSCKASGYSFTDYNMYWVKQSHGKSLECFGYIDPYNGGPYYNQKFKGKATLTVDKSSSTAFMHLNSLTSEDSAVYYCAFYYGYYGVPYWGQGTLVTVSA VL: DIVMTQSQKFMSTSVGDRVSVTCKASHNVGTSVAWYQQKPGQSPKSLIYSASYRYSGVPDRFTGSGSGTDFTLTISNVQSEDLAEYFCQQYNSYPLTFGSGTKLEIK	27.5
anti-Siglec-5 monoclonal antibody 11C6 (antibody, IgG1, V domains shown, also called 1106) VH: QVQLQQSGAELVKPGASVKLSCKASGYTFTEYTIHWVKQRSGQGLEWIGWFYPGSGSIKYNEKFKDKATLTAVKSSSTVYMEFSRLTSEDSAVYFCARQDYDGLGFAYWGQGTLVTVSA VL: DVLMTQTPLSLPVSLGDQASISCRSSQTIVHSNGNTYLEWYLQKPGQSPKLLIYKVSNRFSGVPDRFSGSGSGTDFTLKISRVEAEDLGVYYCFQGSHVPWTFGGGTKLEIK	25.4
anti-Siglec-5 monoclonal antibody 2G5 (antibody, IgG1, V domains shown) VH: EIQLQQSGPELVKPGASVKVSCKASGYSFTDYNMYWVKQSHGKSLEWIGYIDPYNGNTTYNQRFKGKATLTVDKSSSTAFMHLNSLTSEDAAVYYCATFYGFDGFAYWGQGSLVAVSA VL: QAVVTQESALTTSPGETVTLTCRSSTGAVTTSNYANWVQEKPDHLFTGLIGTTNNRAPGVPARFSGSLIGDKAALTITGAQTEDEAIYFCALWYSNHLVFGGGTKLTVLG	31.8
